Below is a list of entries, each paired with its recorded Weight Loss Nadir (%) value.
- Tested on: A431 tumours
- measurement_context: A431 xenograft, q3dx4, intraperitoneal; mean nadir relative to day 0 weight
Note: a bare number is incomplete; add the unit.

Request: Weight Loss Nadir (%), test system A431 tumours, entry C#Cc1cc(Nc2ncnc3cnc(NC(=O)/C=C/CN(C)C)cc23)ccc1Cl [Compound 9]
−1.7 ± 1.7%

Request: Weight Loss Nadir (%), test system A431 tumours, entry CN(C)C/C=C/C(=O)Nc1cc2c(Nc3ccc(Cl)c(Br)c3)ncnc2cn1 [Compound 5]
−6.3 ± 4.5%

Request: Weight Loss Nadir (%), test system A431 tumours, entry CN(C)C/C=C/C(=O)Nc1cc2c(Nc3ccc(Br)c(Cl)c3)ncnc2cn1 [Compound 6]
−1.5 ± 0.8%

Request: Weight Loss Nadir (%), test system A431 tumours, entry Cn1cnc([N+](=O)[O-])c1C[N+](C)(C)C/C=C/C(=O)Nc1cc2c(Nc3ccc(Br)c(Cl)c3)ncnc2cn1.[Br-] [Compound 18]
−4.1 ± 0.4%

Please examine the following record next.
Request: Weight Loss Nadir (%), test system A431 tumours, entry C#Cc1cc(Nc2ncnc3cnc(NC(=O)/C=C/C[N+](C)(C)Cc4c([N+](=O)[O-])ncn4C)cc23)ccc1Cl [Compound 21]
−4.3 ± 2.3%

* * *

Below is a list of entries, each paired with its recorded log10 of IC50 value.
- Test system: H1975 cells
- test_name: Inhibition of cellular proliferation (sulforhodamine B staining)
- measurement_context: read-out: Cellular Growth Inhibition IC50 H1975 Oxic; 24 hour exposure entirely under oxic conditions, washed, further 4 days
Kindly note that the scale is log10 and the underlying IC50 is in µM.

// below: answered compounds
GET /values?readout=log10 of IC50&item= `CN(C)C/C=C/C(=O)Nc1cc2c(Nc3ccc(Cl)c(Br)c3)ncnc2cn1`
-0.54

GET /values?readout=log10 of IC50&item= `Cn1cnc([N+](=O)[O-])c1C[N+](C)(C)C/C=C/C(=O)Nc1cc2c(Nc3ccc(OCc4cccc(Cl)c4)c(Cl)c3)ncnc2cn1`
1.56

GET /values?readout=log10 of IC50&item= `C#Cc1cc(Nc2ncnc3cnc(NC(=O)/C=C/C[N+](C)(C)Cc4c([N+](=O)[O-])ncn4C)cc23)ccc1F`
2.07

Please examine the following record next.
GET /values?readout=log10 of IC50&item= `Cn1cnc([N+](=O)[O-])c1C[N+](C)(C)C/C=C/C(=O)Nc1cc2c(Nc3ccc(Br)c(Cl)c3)ncnc2cn1.[Br-]`
1.12

* * *

- Test system: SKOV3 cells
- test_name: Inhibition of cellular proliferation (sulforhodamine B staining)
- measurement_context: read-out: Cellular Growth Inhibition IC50 SKOV3 Oxic; 24 hour exposure entirely under oxic conditions, washed, further 4 days
property_measured: pIC50
pIC50 is defined as minus the log10 of a concentration measured in mol/L.

GET /values?readout=pIC50&item= Cn1cnc([N+](=O)[O-])c1C[N+](C)(C)C/C=C/C(=O)Nc1cc2c(Nc3ccc(OCc4cccc(Cl)c4)c(Cl)c3)ncnc2cn1 [Compound 12]
4.33

GET /values?readout=pIC50&item= CN(C)C/C=C/C(=O)Nc1cc2c(Nc3ccc(Br)c(Br)c3)ncnc2cn1 [Compound 7]
6.43

GET /values?readout=pIC50&item= Cn1cnc([N+](=O)[O-])c1C[N+](C)(C)C/C=C/C(=O)Nc1cc2c(Nc3ccc(Br)c(Cl)c3)ncnc2cn1.[Br-] [Compound 18]
4.89

GET /values?readout=pIC50&item= Cn1cnc([N+](=O)[O-])c1C[N+](C)(C)C/C=C/C(=O)Nc1cc2c(Nc3ccc4c(cnn4Cc4cccc(F)c4)c3)ncnc2cn1 [Compound 13]
3.50

GET /values?readout=pIC50&item= Cc1nc([N+](=O)[O-])c(C[N+](C)(C)C/C=C/C(=O)Nc2cc3c(Nc4ccc5c(cnn5Cc5cccc(F)c5)c4)ncnc3cn2)n1C [Compound 14]
4.49

GET /values?readout=pIC50&item= Cn1cnc([N+](=O)[O-])c1C[N+](C)(C)C/C=C/C(=O)Nc1cc2c(Nc3ccc(OCc4ccccn4)c(Cl)c3)ncnc2cn1 [Compound 15]
3.80

* * *

- System: H1975 cells
- test_name: Inhibition of cellular proliferation (sulforhodamine B staining)
- measurement_context: fold change in intra-experimental IC50, 4 hours anoxia relative to oxic only
// boundary case: H1975 HCR (Hypoxic Cytotoxicity Ratio) equal to 1 maps to criterion not met; strictly smaller maps to criterion met

Take a look at these entries with their results.
Given `Cc1nc([N+](=O)[O-])c(C[N+](C)(C)C/C=C/C(=O)Nc2cc3c(Nc4ccc5c(cnn5Cc5cccc(F)c5)c4)ncnc3cn2)n1C` , is recorded H1975 HCR (Hypoxic Cytotoxicity Ratio) strictly lower than 1?
criterion not met

Given `C#Cc1cc(Nc2ncnc3cnc(NC(=O)/C=C/CN(C)C)cc23)ccc1Cl` , is recorded H1975 HCR (Hypoxic Cytotoxicity Ratio) strictly lower than 1?
criterion met

Given `Cn1cnc([N+](=O)[O-])c1C[N+](C)(C)C/C=C/C(=O)Nc1cc2c(Nc3ccc(OCc4cccc(Cl)c4)c(Cl)c3)ncnc2cn1` , is recorded H1975 HCR (Hypoxic Cytotoxicity Ratio) strictly lower than 1?
criterion not met

New cases:
Given `CN(C)C/C=C/C(=O)Nc1cc2c(Nc3ccc(OCc4ccccn4)c(Cl)c3)ncnc2cn1` , is recorded H1975 HCR (Hypoxic Cytotoxicity Ratio) strictly lower than 1?
criterion met

Given `C#Cc1cc(Nc2ncnc3cnc(NC(=O)/C=C/C[N+](C)(C)Cc4c([N+](=O)[O-])ncn4C)cc23)ccc1Cl` , is recorded H1975 HCR (Hypoxic Cytotoxicity Ratio) strictly lower than 1?
criterion not met

Given `CN(C)C/C=C/C(=O)Nc1cc2c(Nc3ccc(Cl)c(Br)c3)ncnc2cn1` , is recorded H1975 HCR (Hypoxic Cytotoxicity Ratio) strictly lower than 1?
criterion met

Given `CN(C)C/C=C/C(=O)Nc1cc2c(Nc3ccc(Br)c(Cl)c3)ncnc2cn1` , is recorded H1975 HCR (Hypoxic Cytotoxicity Ratio) strictly lower than 1?
criterion met

* * *

- System: A431 cells
- test_name: Inhibition of cellular proliferation (sulforhodamine B staining)
- measurement_context: fold change in intra-experimental IC50, 4 hours anoxia relative to oxic only
property_measured: A431 HCR (Hypoxic Cytotoxicity Ratio)

// below: answered molecules
Request: A431 HCR (Hypoxic Cytotoxicity Ratio), test system A431 cells, entry `CN(C)C/C=C/C(=O)Nc1cc2c(Nc3ccc(Cl)c(Cl)c3)ncnc2cn1`
0.9

Request: A431 HCR (Hypoxic Cytotoxicity Ratio), test system A431 cells, entry `CN(C)C/C=C/C(=O)Nc1cc2c(Nc3ccc4c(cnn4Cc4cccc(F)c4)c3)ncnc2cn1`
1.0

Request: A431 HCR (Hypoxic Cytotoxicity Ratio), test system A431 cells, entry `CN(C)C/C=C/C(=O)Nc1cc2c(Nc3ccc(Br)c(Br)c3)ncnc2cn1`
0.8

Please examine the following record next.
Request: A431 HCR (Hypoxic Cytotoxicity Ratio), test system A431 cells, entry `CN(C)C/C=C/C(=O)Nc1cc2c(Nc3ccc(Cl)c(Br)c3)ncnc2cn1`
1.0

* * *

- measurement_context: pulse radiolysis, determined against methylviologen
Below is a list of entries, each paired with its recorded E(1)/V 1-electron reduction potential value.
Respond numerically; units are V and should not be typed.

// below: answered molecules
GET /values?readout=E(1)/V 1-electron reduction potential&item= `Cn1cnc([N+](=O)[O-])c1C[N+](C)(C)C/C=C/C(=O)Nc1cc2c(Nc3ccc(Br)c(Cl)c3)ncnc2cn1.[Br-]`
−0.428

GET /values?readout=E(1)/V 1-electron reduction potential&item= `Cn1cnc([N+](=O)[O-])c1C[N+](C)(C)C/C=C/C(=O)Nc1cc2c(Nc3ccc(Cl)c(Cl)c3)ncnc2cn1`
−0.418

New cases:
GET /values?readout=E(1)/V 1-electron reduction potential&item= `Cn1cnc([N+](=O)[O-])c1C[N+](C)(C)C/C=C/C(=O)Nc1cc2c(Nc3ccc(Br)c(Br)c3)ncnc2cn1.[Br-]`
−0.425

GET /values?readout=E(1)/V 1-electron reduction potential&item= `Cn1cnc([N+](=O)[O-])c1C[N+](C)(C)C/C=C/C(=O)Nc1cc2c(Nc3ccc(OCc4ccccn4)c(Cl)c3)ncnc2cn1`
−0.423

GET /values?readout=E(1)/V 1-electron reduction potential&item= `Cn1cnc([N+](=O)[O-])c1C[N+](C)(C)C/C=C/C(=O)Nc1cc2c(Nc3ccc4c(cnn4Cc4cccc(F)c4)c3)ncnc2cn1`
−0.417

* * *

- target_entity: erbB1 (EGFR) (Homo sapiens, UniProt P00533)
- Sequence (P00533 25-1210): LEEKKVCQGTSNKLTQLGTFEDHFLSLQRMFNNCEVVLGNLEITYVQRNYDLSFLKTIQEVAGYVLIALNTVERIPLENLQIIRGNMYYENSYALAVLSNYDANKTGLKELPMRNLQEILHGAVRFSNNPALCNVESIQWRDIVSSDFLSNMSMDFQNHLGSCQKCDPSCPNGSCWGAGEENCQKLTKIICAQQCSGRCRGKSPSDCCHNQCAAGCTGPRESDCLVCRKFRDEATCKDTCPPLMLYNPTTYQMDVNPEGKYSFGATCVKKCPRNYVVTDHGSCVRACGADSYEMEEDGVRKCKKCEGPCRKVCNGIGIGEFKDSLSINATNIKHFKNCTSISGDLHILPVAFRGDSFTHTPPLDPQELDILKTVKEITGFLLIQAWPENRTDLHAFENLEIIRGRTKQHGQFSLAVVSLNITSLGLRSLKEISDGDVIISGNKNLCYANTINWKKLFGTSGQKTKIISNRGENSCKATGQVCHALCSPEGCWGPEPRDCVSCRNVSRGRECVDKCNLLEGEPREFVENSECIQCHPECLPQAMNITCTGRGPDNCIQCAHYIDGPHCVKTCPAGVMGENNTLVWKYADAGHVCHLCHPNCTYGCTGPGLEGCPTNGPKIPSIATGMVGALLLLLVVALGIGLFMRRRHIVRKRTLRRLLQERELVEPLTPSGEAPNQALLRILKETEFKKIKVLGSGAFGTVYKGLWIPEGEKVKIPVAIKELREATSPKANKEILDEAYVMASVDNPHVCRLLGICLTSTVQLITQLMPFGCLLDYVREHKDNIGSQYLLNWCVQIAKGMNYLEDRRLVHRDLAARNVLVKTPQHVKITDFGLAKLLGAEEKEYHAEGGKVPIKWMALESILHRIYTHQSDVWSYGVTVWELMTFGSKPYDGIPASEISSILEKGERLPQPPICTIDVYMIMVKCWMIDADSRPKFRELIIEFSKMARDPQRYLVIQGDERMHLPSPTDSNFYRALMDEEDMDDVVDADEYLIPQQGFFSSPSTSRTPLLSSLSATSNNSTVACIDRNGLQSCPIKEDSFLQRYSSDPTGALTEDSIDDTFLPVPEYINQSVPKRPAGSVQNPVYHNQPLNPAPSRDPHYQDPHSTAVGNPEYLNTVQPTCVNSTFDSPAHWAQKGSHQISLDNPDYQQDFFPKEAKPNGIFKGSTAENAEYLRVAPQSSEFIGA
- test_name: Inhibition of erbB1 autophosphorylation in EGF-stimulated intact A431 cells (Western immunoblotting)
- measurement_context: 1 hour treatment, phospho-EGFR (Tyr 1068), β-actin corrected
Below is a list of entries, each paired with its recorded pIC50 value.
pIC50 is defined as minus the log10 of a concentration measured in mol/L.

// below: answered molecules
GET /values?readout=pIC50&item= `Cn1cnc([N+](=O)[O-])c1C[N+](C)(C)C/C=C/C(=O)Nc1cc2c(Nc3ccc(OCc4ccccn4)c(Cl)c3)ncnc2cn1`
5.28

GET /values?readout=pIC50&item= `CN(C)C/C=C/C(=O)Nc1cc2c(Nc3ccc(OCc4ccccn4)c(Cl)c3)ncnc2cn1`
7.32

GET /values?readout=pIC50&item= `CN(C)C/C=C/C(=O)Nc1cc2c(Nc3ccc(Br)c(Cl)c3)ncnc2cn1`
7.60

New cases:
GET /values?readout=pIC50&item= `CN(C)C/C=C/C(=O)Nc1cc2c(Nc3ccc(Cl)c(Br)c3)ncnc2cn1`
7.40

Reference for the values: patent US9101632B2
